- assay method text: Displacement of [3H]DHT from 5-alpha-dihydrotestosterone receptor at 200 ug/mL
measured attribute: Activity (%)

>>> df
                                   compound  assay_result
0  C=C(C)C(CC=C(C)C)Cc1c(O)cc(OC)c2c1O[C@H](c1ccccc1O)CC2=O (stereo not given in full) [KUSHENOL R]          82.4
1  C=C(C)C(CCC(C)(C)O)Cc1c(O)cc(O)c2c1O[C@H](c1ccc(O)cc1O)CC2=O (stereo not given in full)            83
2  C=C(C)C(CC=C(C)C)Cc1c(O)cc(OC)c2c1O[C@H](c1ccc(O)cc1OC)CC2=O (stereo not given in full)          58.4
3  CC(C)=CCc1c(O)cc(O)c2c1O[C@H](c1ccc(O)cc1O)CC2=O [LEACHIANONE G]          94.5
4  C=C(C)[C@H](CCC(C)(C)O)Cc1c(O)cc(O)c2c1O[C@H](c1ccccc1O)CC2=O          89.2
5  C=C(C)C(CC=C(C)C)Cc1c(O)cc(OC)c2c1O[C@H](c1ccc(O)cc1O)[C@@H](O)C2=O (stereo not given in full)          84.2
6  C=C(C)C(CC=C(C)C)Cc1c(O)cc(OC)c2c1O[C@H](c1ccc(O)cc1)CC2=O (stereo not given in full) [KUSHENOL U]          96.9
7  C=C(C)C(CC=C(C)C)Cc1c(O)cc(O)c2c1O[C@H](c1ccc(O)cc1O)[C@@H](O)C2=O (stereo not given in full) [KUSHENOL X]          88.6
8  C=C(C)C(CC=C(C)C)Cc1c(O)cc(O)c2c1O[C@H](c1ccccc1O)CC2=O (stereo not given in full)          89.6
9  CC(C)=CCc1c(O)cc(O)c2c1O[C@H](c1ccccc1O)CC2=O [KUSHENOL S]            70

---

- assay method text: Inhibition of testosterone-5-alpha-reductase at 100 ug/mL
measured attribute: inhibition (%)

// worked examples, inhibition included
>>> print(df.to_string())
                                   compound  measured_attribute  unit_abbreviation  assay_result
0  CC(C)=CCC(Cc1c(O)cc(O)c2c1O[C@H](c1ccc(O)cc1O)CC2=O)C(C)CO (stereo not given in full)          inhibition                  %          34.8
1  CC1(C)C=Cc2c(ccc3c2OC[C@@H](c2ccc(O)cc2O)C3)O1          inhibition                  %          84.3
2  C=C(C)C(CC=C(C)C)Cc1c(O)cc(OC)c2c1O[C@H](c1ccc(O)cc1OC)CC2=O (stereo not given in full)          inhibition                  %          79.3
3  C=C(C)C(CC=C(C)C)Cc1c(O)cc(OC)c2c1O[C@H](c1ccc(O)cc1)CC2=O (stereo not given in full)          inhibition                  %          50.3
4  C=C(C)C(CC=C(C)C)Cc1c(O)cc(OC)c2c1O[C@H](c1ccc(O)cc1O)[C@@H](O)C2=O (stereo not given in full)          inhibition                  %          50.9

1: CC(C)=CCc1c(O)cc(O)c2c1O[C@H](c1ccccc1O)CC2=O
2: CC(C)=CCc1c(O)cc(O)c2c1O[C@H](c1ccc(O)cc1O)CC2=O
Between 1 and 2 , which one shows the smaller inhibition number? Answer = label.
1

1: C=C(C)C(CC=C(C)C)Cc1c(O)cc(OC)c2c1O[C@H](c1ccccc1O)CC2=O (stereo not given in full)
2: C=C(C)C(CC=C(C)C)Cc1c(O)cc(O)c2c1O[C@H](c1ccc(O)cc1O)CC2=O (stereo not given in full)
3: C=C(C)[C@H](CCC(C)(C)O)Cc1c(O)cc(O)c2c1O[C@H](c1ccccc1O)CC2=O
4: C=C(C)C(CCC(C)(C)O)Cc1c(O)cc(OC)c2c1O[C@H](c1ccc(O)cc1O)CC2=O (stereo not given in full)
Arrange these compounds by their inhibition, starting with the largest number. Use the labels to give the ranking in the order requested.
2, 3, 1, 4
(2: 86.4%, 3: 54.8%, 1: 23.6%, 4: -0.2%)

I: C=C(C)C(CC=C(C)C)Cc1c(O)cc(O)c2c1O[C@H](c1ccc(O)cc1O)[C@@H](O)C2=O (stereo not given in full)
II: C=C(C)C(CCC(C)(C)O)Cc1c(O)cc(O)c2c1O[C@H](c1ccc(O)cc1O)CC2=O (stereo not given in full)
Compare reported inhibition values for I and II . Which is lower? Indicate which entry you chose by stating its label.
II
(II: 41.3%, I: 84.5%)

src = ChEMBL document CHEMBL1144146
